target: HLA-B*46:01; test: IEDB peptide-MHC binding, purified MHC/competitive/fluorescence; filed as Kd, often an IC50 or EC50 that approximates it; bounds were set here for any values at or beyond the usual limits of such assays; settings: source organism: Entamoeba histolytica HM-1:IMSS
value_type: pKd
Give bare numbers, as −log10 of the molar value.

Request: Request - read-out pKd | tested on HLA-B*46:01 | sequence IAKGIDAEF
Response: 6.78

----------
molecular target: HLA-A*02:01; experiment: IEDB peptide-MHC binding, purified MHC/direct/fluorescence; filed as Kd, often an IC50 or EC50 that approximates it; bounds were set here for any values at or beyond the usual limits of such assays; conditions: source organism: Encephalitozoon cuniculi
value_type: Kd (µM)
One number for each entry, in µM.

Request: Look at this sequence and give its reported Kd. YLWFKRHVY
Response: 4.01
